- PROTOCOL TEXT: Partition coefficients of akuamma alkaloids in CCS solvent systems
- Type: physicochemical
- PROTOCOL CONDITIONS: 3:1.5:4 MTBE/CH3CN/H2O, 10 mM HCl
QUANTITY: Kacid
Form: value (number only, do not type unit).

So for C/C=C1/CN2CC[C@]34C(=Nc5ccccc53)[C@@H]2C[C@@H]1[C@@]4(COC(C)=O)C(=O)OC [Compound 5, akuammiline] , the logged Kacid turned out to be 0.05

So for C/C=C1/CN2CC[C@@]34c5ccccc5N(C)[C@]35OC[C@@]4(C(=O)OC)[C@H]1C[C@H]25 [Compound 3, pseudo-akuammigine] , the logged Kacid turned out to be 0.25

So for C/C=C1/CN2[C@@H]3C[C@@]45c6ccccc6N[C@]4(O3)[C@@H]2C[C@@H]1[C@@]5(COC(C)=O)C(=O)OC [Compound 6, picraline] , the logged Kacid turned out to be 0.10

So for C/C=C1/CN2CC[C@]34C(=C(C(=O)OC)[C@H]1C[C@H]23)Nc1ccccc14 [Compound 4, akuammicine] , the logged Kacid turned out to be 0.14
